Record form. Attribute: PBM binding z-score. Fill in for each entry.
- System: VDR homodimer (NR concentration 270 nM)
- TEST_DESCRIPTION: PBM binding z-score (relative to random genomic background probes); higher = stronger binding; sequences stand for … in GC…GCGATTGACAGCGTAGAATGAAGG
Hey, just send me the number, nothing else.

Request: Give its PBM binding z-score value. Item: AGTCAAAGTTCAGGACGAGGTAACGGAAAGCACG
Response: 1.79

Request: Give its PBM binding z-score value. Item: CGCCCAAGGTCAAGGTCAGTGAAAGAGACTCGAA
Response: 2.96

Request: Give its PBM binding z-score value. Item: GCTATTAGTTGAAAGAGCAACCGAATGATTCTCG
Response: -0.22

---

Record form. Attribute: PBM binding z-score. Fill in for each entry.
- Tested on: LXRb homodimer (NR concentration 270 nM)
- TEST_DESCRIPTION: PBM binding z-score (relative to random genomic background probes); higher = stronger binding; sequences stand for … in GC…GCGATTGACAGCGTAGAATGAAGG

Request: Give its PBM binding z-score value. Item: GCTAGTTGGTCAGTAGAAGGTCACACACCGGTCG
Response: 0.231

Request: Give its PBM binding z-score value. Item: CCTATTAGTTGACCATAAGGGCAAGCGAAGCTCG
Response: 0.573

Request: Give its PBM binding z-score value. Item: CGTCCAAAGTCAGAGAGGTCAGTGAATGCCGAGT
Response: 0.362

Request: Give its PBM binding z-score value. Item: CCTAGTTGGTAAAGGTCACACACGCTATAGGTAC
Response: 2.13

Request: Give its PBM binding z-score value. Item: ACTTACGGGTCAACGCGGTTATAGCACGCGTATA
Response: 0.727

Request: Give its PBM binding z-score value. Item: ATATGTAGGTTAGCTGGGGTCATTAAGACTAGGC
Response: 1.38

Request: Give its PBM binding z-score value. Item: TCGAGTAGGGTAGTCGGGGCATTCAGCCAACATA
Response: -0.844

Request: Give its PBM binding z-score value. Item: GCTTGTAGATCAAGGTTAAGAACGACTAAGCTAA
Response: -0.704

Request: Give its PBM binding z-score value. Item: CCTAGCAGGCCAATCTTGGTCACTCAAGGCTTGA
Response: -0.715

Request: Give its PBM binding z-score value. Item: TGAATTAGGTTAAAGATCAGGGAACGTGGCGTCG
Response: 0.342

Request: Give its PBM binding z-score value. Item: CAAACTAGGTCAAAGGTAAAAGTCGAGCCAACCA
Response: 0.646

Request: Give its PBM binding z-score value. Item: GATACAGGGTCAGCTAGAGGCCTGAGTATGGAAA
Response: -0.639

---

- Tested on: VDR homodimer (NR concentration 270 nM)
- TEST_DESCRIPTION: PBM binding z-score (relative to random genomic background probes); higher = stronger binding; sequences stand for … in GC…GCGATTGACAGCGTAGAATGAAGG
Record form. Attribute: PBM binding z-score. Fill in for each entry.

Request: Checklist item: PBM binding z-score tested on VDR homodimer (NR concentration 270 nM), entry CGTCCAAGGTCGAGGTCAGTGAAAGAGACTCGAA , value?
Response: 2.96

Request: Checklist item: PBM binding z-score tested on VDR homodimer (NR concentration 270 nM), entry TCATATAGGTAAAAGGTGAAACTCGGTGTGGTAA , value?
Response: 0.686

Request: Checklist item: PBM binding z-score tested on VDR homodimer (NR concentration 270 nM), entry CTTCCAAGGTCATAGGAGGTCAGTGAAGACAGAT , value?
Response: 4.49

Request: Checklist item: PBM binding z-score tested on VDR homodimer (NR concentration 270 nM), entry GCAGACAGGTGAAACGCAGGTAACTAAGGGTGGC , value?
Response: -0.867

Request: Checklist item: PBM binding z-score tested on VDR homodimer (NR concentration 270 nM), entry GCAGACAGGAGAAACGCAGGTAACTCAGGGTGGC , value?
Response: -0.432

Request: Checklist item: PBM binding z-score tested on VDR homodimer (NR concentration 270 nM), entry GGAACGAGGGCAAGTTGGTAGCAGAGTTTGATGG , value?
Response: 1.91

Request: Checklist item: PBM binding z-score tested on VDR homodimer (NR concentration 270 nM), entry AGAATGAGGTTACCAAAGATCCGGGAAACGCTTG , value?
Response: 0.252

Request: Checklist item: PBM binding z-score tested on VDR homodimer (NR concentration 270 nM), entry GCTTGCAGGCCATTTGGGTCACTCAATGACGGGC , value?
Response: 0.751

Request: Checklist item: PBM binding z-score tested on VDR homodimer (NR concentration 270 nM), entry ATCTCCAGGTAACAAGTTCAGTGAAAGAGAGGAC , value?
Response: 3.33

Request: Checklist item: PBM binding z-score tested on VDR homodimer (NR concentration 270 nM), entry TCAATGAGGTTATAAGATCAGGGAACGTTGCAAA , value?
Response: 0.536
